- CONDITION: in n-butanol, 283.15 K
MEASUREMENT LABEL: solubility (mole fraction)
# answer = number (no unit)

Task: Item NC(=O)C[C@H](NC(=O)OCc1ccccc1)C(=O)O : provide solubility (mole fraction)
Output: 0.00023

###

- CONDITION: in methanol, 293.15 K
MEASUREMENT LABEL: solubility (mole fraction)
# answer = number (no unit)

Task: Item NC(=O)C[C@H](NC(=O)OCc1ccccc1)C(=O)O : provide solubility (mole fraction)
Output: 0.00233

###

- CONDITION: in n-pentanol, 313.15 K
MEASUREMENT LABEL: solubility (mole fraction)

Task: Item NC(=O)C[C@H](NC(=O)OCc1ccccc1)C(=O)O : provide solubility (mole fraction)
Output: 0.000652

###

- CONDITION: in acetonitrile, 293.15 K
MEASUREMENT LABEL: solubility (mole fraction)
# answer = number (no unit)

Task: Item NC(=O)C[C@H](NC(=O)OCc1ccccc1)C(=O)O : provide solubility (mole fraction)
Output: 0.000221

###

- CONDITION: in 2-butanone, 313.15 K
MEASUREMENT LABEL: solubility (mole fraction)
# answer = number (no unit)

Task: Item NC(=O)C[C@H](NC(=O)OCc1ccccc1)C(=O)O : provide solubility (mole fraction)
Output: 0.001

###

- CONDITION: in n-propanol, 283.15 K
MEASUREMENT LABEL: solubility (mole fraction)
# answer = number (no unit)

Task: Item NC(=O)C[C@H](NC(=O)OCc1ccccc1)C(=O)O : provide solubility (mole fraction)
Output: 0.000285

###

- CONDITION: in n-butanol, 318.15 K
MEASUREMENT LABEL: solubility (mole fraction)
# answer = number (no unit)

Task: Item NC(=O)C[C@H](NC(=O)OCc1ccccc1)C(=O)O : provide solubility (mole fraction)
Output: 0.00135

###

- CONDITION: in isobutanol, 318.15 K
MEASUREMENT LABEL: solubility (mole fraction)

Task: Item NC(=O)C[C@H](NC(=O)OCc1ccccc1)C(=O)O : provide solubility (mole fraction)
Output: 0.000831

###

- CONDITION: in 2-butanone, 298.15 K
MEASUREMENT LABEL: solubility (mole fraction)
# answer = number (no unit)

Task: Item NC(=O)C[C@H](NC(=O)OCc1ccccc1)C(=O)O : provide solubility (mole fraction)
Output: 0.000652

###

- CONDITION: in n-butanol, 313.15 K
MEASUREMENT LABEL: solubility (mole fraction)
# answer = number (no unit)

Task: Item NC(=O)C[C@H](NC(=O)OCc1ccccc1)C(=O)O : provide solubility (mole fraction)
Output: 0.0011

###

- CONDITION: in 2-butanone, 293.15 K
MEASUREMENT LABEL: solubility (mole fraction)

Task: Item NC(=O)C[C@H](NC(=O)OCc1ccccc1)C(=O)O : provide solubility (mole fraction)
Output: 0.000544

###

- CONDITION: in ethanol, 318.15 K
MEASUREMENT LABEL: solubility (mole fraction)

Task: Item NC(=O)C[C@H](NC(=O)OCc1ccccc1)C(=O)O : provide solubility (mole fraction)
Output: 0.00311

###

- CONDITION: in n-propanol, 288.15 K
MEASUREMENT LABEL: solubility (mole fraction)

Task: Item NC(=O)C[C@H](NC(=O)OCc1ccccc1)C(=O)O : provide solubility (mole fraction)
Output: 0.000339

The reported numbers originate from BigSolDB 2.1.
